- Tested on: Aspergillus niger
- ASSAY INFO: Antifungal activity against Aspergillus niger MTCC 8189 after 120 hrs by serial dilution method
- Assay type: functional
- EXPERIMENTAL SETUP: MTCC 8189, 120 h
Please map values of MIC to classes as shown: lower level (below 10 µM), middle level (10 µM to below 20 µM), upper level (20 µM or more)

{"GIVEN SMILES": "COc1ccc(C(=O)/C=C/c2c(OCc3cn(Cc4ccc(F)cc4)nn3)ccc3ccccc23)cc1", "TGT": "Aspergillus niger", "CAT": "middle level"}
{"GIVEN SMILES": "O=C(/C=C/c1c(OCc2cn(Cc3ccc(F)cc3)nn2)ccc2ccccc12)c1ccc(Br)cc1", "TGT": "Aspergillus niger", "CAT": "lower level"}
{"GIVEN SMILES": "COc1ccc(C(=O)/C=C/c2c(OCc3cn(Cc4ccccc4)nn3)ccc3ccccc23)cc1", "TGT": "Aspergillus niger", "CAT": "upper level"}
{"GIVEN SMILES": "COc1ccc(C(=O)/C=C/c2c(OCc3cn(-c4cccc(C(F)(F)F)c4)nn3)ccc3ccccc23)cc1", "TGT": "Aspergillus niger", "CAT": "middle level"}
{"GIVEN SMILES": "O=C(/C=C/c1c(OCc2cn(Cc3cccc(F)c3)nn2)ccc2ccccc12)c1ccc([N+](=O)[O-])cc1", "TGT": "Aspergillus niger", "CAT": "lower level"}
{"GIVEN SMILES": "O=C(/C=C/c1c(OCc2cn(-c3ccc(F)cc3)nn2)ccc2ccccc12)c1ccc([N+](=O)[O-])cc1", "TGT": "Aspergillus niger", "CAT": "middle level"}
{"GIVEN SMILES": "O=C(/C=C/c1c(OCc2cn(Cc3ccccc3F)nn2)ccc2ccccc12)c1ccc(Br)cc1", "TGT": "Aspergillus niger", "CAT": "upper level"}
{"GIVEN SMILES": "C#CCOc1ccc2ccccc2c1/C=C/C(=O)c1ccc(Br)cc1", "TGT": "Aspergillus niger", "CAT": "upper level"}
{"GIVEN SMILES": "O=C(/C=C/c1c(OCc2cn(-c3cccc(C(F)(F)F)c3)nn2)ccc2ccccc12)c1ccc(Br)cc1", "TGT": "Aspergillus niger", "CAT": "middle level"}
{"GIVEN SMILES": "COc1ccc(C(=O)/C=C/c2c(OCc3cn(Cc4ccccc4F)nn3)ccc3ccccc23)cc1", "TGT": "Aspergillus niger", "CAT": "upper level"}
{"GIVEN SMILES": "COc1ccc(C(=O)/C=C/c2c(OCc3cn(-c4ccc(F)cc4)nn3)ccc3ccccc23)cc1", "TGT": "Aspergillus niger", "CAT": "upper level"}
{"GIVEN SMILES": "O=C(/C=C/c1c(OCc2cn(-c3cccc(C(F)(F)F)c3)nn2)ccc2ccccc12)c1ccc([N+](=O)[O-])cc1", "TGT": "Aspergillus niger", "CAT": "upper level"}
{"GIVEN SMILES": "O=C(/C=C/c1c(OCc2cn(Cc3ccc(F)cc3)nn2)ccc2ccccc12)c1ccc([N+](=O)[O-])cc1", "TGT": "Aspergillus niger", "CAT": "lower level"}
{"GIVEN SMILES": "O=C(/C=C/c1c(OCc2cn(Cc3cccc(F)c3)nn2)ccc2ccccc12)c1ccc(Br)cc1", "TGT": "Aspergillus niger", "CAT": "upper level"}
{"GIVEN SMILES": "O=C(/C=C/c1c(OCc2cn(Cc3ccccc3)nn2)ccc2ccccc12)c1ccc(Br)cc1", "TGT": "Aspergillus niger", "CAT": "middle level"}
{"GIVEN SMILES": "C#CCOc1ccc2ccccc2c1/C=C/C(=O)c1ccc(OC)cc1", "TGT": "Aspergillus niger", "CAT": "upper level"}
{"GIVEN SMILES": "COc1ccc(C(=O)/C=C/c2c(OCc3cn(Cc4cccc(F)c4)nn3)ccc3ccccc23)cc1", "TGT": "Aspergillus niger", "CAT": "middle level"}
{"GIVEN SMILES": "C#CCOc1ccc2ccccc2c1/C=C/C(=O)c1ccc([N+](=O)[O-])cc1", "TGT": "Aspergillus niger", "CAT": "upper level"}
{"GIVEN SMILES": "O=C(/C=C/c1c(OCc2cn(Cc3ccccc3)nn2)ccc2ccccc12)c1ccc([N+](=O)[O-])cc1", "TGT": "Aspergillus niger", "CAT": "lower level"}
{"GIVEN SMILES": "O=C(/C=C/c1c(OCc2cn(Cc3ccccc3F)nn2)ccc2ccccc12)c1ccc([N+](=O)[O-])cc1", "TGT": "Aspergillus niger", "CAT": "lower level"}
{"GIVEN SMILES": "OC(Cn1cncn1)(Cn1cncn1)c1ccc(F)cc1F", "TGT": "Aspergillus niger", "CAT": "lower level"}
{"GIVEN SMILES": "O=C(/C=C/c1c(OCc2cn(-c3ccc(F)cc3)nn2)ccc2ccccc12)c1ccc(Br)cc1", "TGT": "Aspergillus niger", "CAT": "upper level"}
